Hello, the source for this data is the nanobody polyreactivity screen of Harvey et al. (2022), in case you need it.

assay: yeast display, Sf9 membrane polyspecificity reagent, FACS + sequencing; frameworks hold sequencing errors

>  <residue_string>
QVQLVESGGGLVQAGGSLRLRCAASGSIFFFYAMGWYRQAPGKERELVAAISKSPSSTYYADSVKGRFTISRDNAKNTVYLQMNSLKPEDTAVYYCNNGYSGIQYYYWGHGTQVTVSS

>  <polyreactivity (PSR sort gate)>
low polyreactivity

$$$$
>  <residue_string>
QVQLVESGGGLVQAGGSLRLSCAASGTTFLINAMGWYRQAPGKERELVATISSGGSTYYADSVKGRFTISRDNAKNNVYLQMNSLKPEDTAVYFCAADPDRTAYDYWGQGTQVTVSS

>  <polyreactivity (PSR sort gate)>
low polyreactivity

$$$$
>  <residue_string>
QVQLVESGGGLVQAGGSLRLSCAASGIIFKLYAMGWYRQAPGKEREFVATITKTCGRTYYADSVKGRFTISRDNAKNTVYLQMNSLKPEDTAVYYCAARRVNGKMYYWGQGTQVTVSS

>  <polyreactivity (PSR sort gate)>
high polyreactivity

$$$$
>  <residue_string>
QVQLGDSGGGLVQAGGSLRLSCAASGFNFRTNTMGWYRQEPGKERELVAAITRSGGSTYYADSVKGRFTISSDNAKYTVYLQMNSLKPEDSAVYYCAKEYRRVVADFGYWGQGTQVTVSS

>  <polyreactivity (PSR sort gate)>
high polyreactivity

$$$$
>  <residue_string>
QVQLVESGGGLVQAGGSLRLSCAASGSIFYRNVMGWYRQAPGKERELVASINFSGGSTYYADCVKGRFTISRDNAKNTVYLQMNSLKPEDTAVYYCAARTVHIYTRMYYWGQGTQVTVSS

>  <polyreactivity (PSR sort gate)>
high polyreactivity

$$$$
>  <residue_string>
QVQLVESRGGLVQAGGSLRLSCAASGRIFGDNAMGWSRQAPGKEREFVATINGSGGSTYYADSVKGRFTISRDNAKNTVYLQMNSLKPEDTAVYYCFVYGYVPYNYWGQGTQVTVSS

>  <polyreactivity (PSR sort gate)>
low polyreactivity

$$$$
>  <residue_string>
QVQLVESGGGLVQAGGSLRLSCAASGSTFEKNAMGWYRQAPGKEREFVAAISRRGGSTYYADSVKGRFTISRDNAKNTVYLQMNSLKPEDTAVYYCAAQQLTWYSYRGDYWGQGTQVTVSS

>  <polyreactivity (PSR sort gate)>
high polyreactivity

$$$$
>  <residue_string>
QVQLVESGGGLVQAGGSLRLSCAASGIIFKVNVMGWYRQAPGKERELVAAISWSGGSTYYADSVKGRFTISRDNAKNTFYLQMNILKPEDTAVYYCAAYSYVYGERYYFWGQGTQLTVSS

>  <polyreactivity (PSR sort gate)>
high polyreactivity

$$$$
>  <residue_string>
QVQLVESGGGLVQAGGSLRLICAASGSIFSFYAMGWYRQAPGKERELVAAITSDGSTDYADSVKGRFTISRDNAKNTVYLQMNCLKPEDTAVYYCAADYIVRVVSRYRYGYEYWGQGTQVTVSS

>  <polyreactivity (PSR sort gate)>
low polyreactivity

$$$$
>  <residue_string>
QVQLVESGGGLVQAGGSLRLSCAASGFTFKYYVMGSYRQAPGKERFVAAITGSGASTYYADSVKGRFTISRDNAKNTVFLQMNSLKPEETAVYYCNADYYAGRYRYDYWGQGTQVTVSS

>  <polyreactivity (PSR sort gate)>
high polyreactivity

$$$$
>  <residue_string>
QVQLVESGGGSVQAGGSLRLSCAASGSTFGGNVMGWYRQAPGKERELVAAISGSGGSTYYADSVKGRFTISRDTAKNTVYFQMNSLKPVDTSVYYCNVESSQSSSGFDYWGQGTQVTVSS

>  <polyreactivity (PSR sort gate)>
low polyreactivity

$$$$
